Target: C5 (Homo sapiens, UniProt P01031)
Sequence (P01031 19-1676): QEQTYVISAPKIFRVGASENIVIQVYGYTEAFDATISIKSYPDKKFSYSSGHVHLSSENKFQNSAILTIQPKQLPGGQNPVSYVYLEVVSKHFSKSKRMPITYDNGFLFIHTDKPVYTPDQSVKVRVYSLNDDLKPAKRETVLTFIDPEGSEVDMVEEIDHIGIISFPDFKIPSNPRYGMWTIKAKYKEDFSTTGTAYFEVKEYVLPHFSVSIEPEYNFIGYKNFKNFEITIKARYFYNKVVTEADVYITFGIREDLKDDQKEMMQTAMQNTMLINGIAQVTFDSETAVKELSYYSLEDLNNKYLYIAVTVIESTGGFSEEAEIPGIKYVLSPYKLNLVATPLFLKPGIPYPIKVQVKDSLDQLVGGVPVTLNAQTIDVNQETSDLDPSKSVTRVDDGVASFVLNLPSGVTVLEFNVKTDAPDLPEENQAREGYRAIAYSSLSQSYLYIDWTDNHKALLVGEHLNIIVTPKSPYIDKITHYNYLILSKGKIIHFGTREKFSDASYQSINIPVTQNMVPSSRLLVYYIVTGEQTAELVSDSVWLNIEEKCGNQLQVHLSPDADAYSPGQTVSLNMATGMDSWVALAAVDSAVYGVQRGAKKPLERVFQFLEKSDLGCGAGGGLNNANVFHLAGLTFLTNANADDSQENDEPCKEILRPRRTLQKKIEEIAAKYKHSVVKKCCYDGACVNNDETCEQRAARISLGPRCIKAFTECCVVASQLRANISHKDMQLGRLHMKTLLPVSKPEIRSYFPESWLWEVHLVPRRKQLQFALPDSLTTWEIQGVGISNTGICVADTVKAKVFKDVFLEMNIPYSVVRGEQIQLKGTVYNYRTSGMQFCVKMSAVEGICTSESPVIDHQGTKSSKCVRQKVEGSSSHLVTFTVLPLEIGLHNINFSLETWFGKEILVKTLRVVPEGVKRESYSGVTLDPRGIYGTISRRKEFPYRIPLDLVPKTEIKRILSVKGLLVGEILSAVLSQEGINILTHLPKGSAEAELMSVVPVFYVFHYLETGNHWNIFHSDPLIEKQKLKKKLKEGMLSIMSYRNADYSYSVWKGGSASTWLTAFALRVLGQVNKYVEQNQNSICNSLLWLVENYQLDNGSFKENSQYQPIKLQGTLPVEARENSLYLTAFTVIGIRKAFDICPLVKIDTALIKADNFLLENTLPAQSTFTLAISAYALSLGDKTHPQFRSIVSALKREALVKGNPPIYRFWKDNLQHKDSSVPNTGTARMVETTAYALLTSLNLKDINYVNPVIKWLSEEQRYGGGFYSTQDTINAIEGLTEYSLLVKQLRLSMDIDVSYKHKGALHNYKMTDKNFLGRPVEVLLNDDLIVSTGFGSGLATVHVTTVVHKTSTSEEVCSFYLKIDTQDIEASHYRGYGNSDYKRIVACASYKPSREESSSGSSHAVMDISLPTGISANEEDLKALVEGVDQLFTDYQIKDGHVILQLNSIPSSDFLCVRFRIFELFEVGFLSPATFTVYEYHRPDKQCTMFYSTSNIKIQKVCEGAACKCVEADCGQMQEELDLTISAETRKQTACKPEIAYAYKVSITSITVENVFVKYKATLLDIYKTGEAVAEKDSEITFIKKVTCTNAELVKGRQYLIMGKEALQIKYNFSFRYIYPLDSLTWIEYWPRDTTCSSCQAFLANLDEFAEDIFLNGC
Assay: Human hemolysis assay (RBC lysis assay using complete human sera)
Assay type: cell-based
Set-up: with complete human sera (Complement Technology, Tyler Tex.) and polypeptides; tissue Complement Technology, Tyler Tex; host or cells: complete human serum
Settings: inhibition of lysis of antibody-sensitized sheep erythrocytes, complete human sera
Starred links: 1 amine or outer side, 2 acyl side, 3 side chain; linkers in the order of their positions; H or OH if unused. Positions of bridges follow the written chain, without caps; N, C: chain ends. Non-standard residues stand in square brackets, D forms with d. Residues, ends and D or L forms follow the SMILES beside them. Trp(7-aza) = N[C@@H](Cc1c[nH]c2ncccc12)C(=O)O; mXylylene = c1cc(C[*:1])cc(C[*:2])c1; Tle = CC(C)(C)[C@H](N)C(=O)O; Nva = CCC[C@H](N)C(=O)O; Sar = CNCC(=O)O
measurementName: IC50

Name the recorded IC50 of the compound listed here: CCC[C@H](NC(=O)[C@@H]1CCCN1C(=O)[C@H](CCC)NC(=O)[C@@H]1CSCc2cccc(c2)CSC[C@H](NC(=O)[C@H](CCC)NC(C)=O)C(=O)N[C@@H](Cc2ccc(O)cc2)C(=O)N[C@@H](CCC(=O)O)C(=O)N(C)CC(=O)N[C@@H](C(C)(C)C)C(=O)N[C@@H](Cc2ccc(O)cc2)C(=O)N[C@@H](Cc2c[nH]c3ncccc23)C(=O)N[C@@H](CCC(=O)O)C(=O)N1)C(N)=O [Compound R3009] (Ac-[Nva]CYE[Sar][Tle]Y[Trp(7-aza)]EC[Nva]P[Nva]-NH2; linker 2-10 via mXylylene)
> 100 µM
